Tested on: Gonadotropin-releasing hormone receptor (Rattus norvegicus) (UniProt P30969)
Sequence (whole entry): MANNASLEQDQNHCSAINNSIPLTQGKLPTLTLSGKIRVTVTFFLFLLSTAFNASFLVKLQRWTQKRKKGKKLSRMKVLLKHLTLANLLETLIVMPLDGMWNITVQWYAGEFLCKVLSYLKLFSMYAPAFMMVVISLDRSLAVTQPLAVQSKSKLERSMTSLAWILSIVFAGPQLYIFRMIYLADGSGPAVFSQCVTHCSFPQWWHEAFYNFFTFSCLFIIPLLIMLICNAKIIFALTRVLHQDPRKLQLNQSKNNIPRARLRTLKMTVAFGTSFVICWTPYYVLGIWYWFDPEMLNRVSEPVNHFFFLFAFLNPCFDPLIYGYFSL
Test summary: Antiovulatory activity on diestrus II following administration as a solution in corn oil (24h earlier) in rat.
Format: functional, organism-based
Square brackets hold non-standard residues; d marks the D form. Peptide text beside a SMILES is read from it. dPhe(4-F) = N[C@H](Cc1ccc(F)cc1)C(=O)O; d2Nal = N[C@H](Cc1ccc2ccccc2c1)C(=O)O
Measurement name: ED50 (ug injection-1)
Answers are plain numbers.

-- ask Look at this molecule and give its reported ED50 (ug injection-1). CNC(=NCCCC[C@@H](NC(=O)[C@H](Cc1ccc(O)cc1)NC(=O)[C@H](CO)NC(=O)[C@@H](Cc1c[nH]c2ccccc12)NC(=O)[C@@H](Cc1ccc(Cl)cc1)NC(=O)[C@@H](Cc1ccc(Cl)cc1)NC(C)=O)C(=O)N[C@@H](CC(C)C)C(=O)N[C@@H](CCCN=C(N)N)C(=O)N1CCC[C@H]1C(=O)N[C@H](C)C(N)=O)NC
-- reply 5.6

Continuing:
-- ask Look at this molecule and give its reported ED50 (ug injection-1). CC(=O)N[C@H](Cc1ccc2ccccc2c1)C(=O)N[C@H](Cc1ccc(F)cc1)C(=O)N[C@H](Cc1c[nH]c2ccccc12)C(=O)N[C@@H](CO)C(=O)N[C@@H](Cc1ccc(O)cc1)C(=O)N[C@H](CCCN=C(N)N)C(=O)N[C@@H](CC(C)C)C(=O)N[C@@H](CCCN=C(N)N)C(=O)N1CCC[C@H]1C(=O)NCC(N)=O (Ac-[d2Nal][dPhe(4-F)][dW]SY[dR]LRPG-NH2)
-- reply 9

* * *

I'd appreciate it if you could supply ED50 (ug injection-1) values for the items below.
Tested on: Gonadotropin-releasing hormone receptor (Rattus norvegicus)
Test summary: Antiovulatory activity on proestrus was measured by administering as a solution in 50% propylene glycol / 0.9% saline in rat
Assay type: functional
One number for each entry.

Lab note: each molecule below needs its ED50 (ug injection-1) filled in.
1. CCNC(=NCCCC[C@@H](NC(=O)[C@H](Cc1ccc(O)cc1)NC(=O)[C@H](CO)NC(=O)[C@@H](Cc1cccnc1)NC(=O)[C@@H](Cc1ccc(F)cc1)NC(=O)[C@@H](Cc1ccc2ccccc2c1)NC(C)=O)C(=O)N[C@@H](CC(C)C)C(=O)N[C@@H](CCCN=C(N)N)C(=O)N1CCC[C@H]1C(=O)N[C@H](C)C(N)=O)NCC
2. CCNC(=NCCCC[C@@H](NC(=O)[C@H](Cc1ccc(O)cc1)NC(=O)[C@H](CO)NC(=O)[C@@H](Cc1c[nH]c2ccccc12)NC(=O)[C@@H](Cc1ccc(Cl)cc1)NC(=O)[C@@H](Cc1ccc2ccccc2c1)NC(C)=O)C(=O)N[C@@H](CC(C)C)C(=O)N[C@@H](CCCN=C(N)N)C(=O)N1CCC[C@H]1C(=O)N[C@H](C)C(N)=O)NCC (stereo in doubt)

-- reply
1. 0.7
2. 0.7
